Recorded values, source the supplement of paper PMC9170038.

test system: MS2 coat protein; assay: apparent KD of MS2 coat protein, switch ON state; designed switch direction (-1 OFF switch, 1 ON switch): 1; higher = weaker reporter binding; details: FMN input: 0 or 200 uM; Eterna round: R93 (includes R88 designs)
Class membership depends on apparent KD of MS2 coat protein alone; the intervals are bottom: < 20 nM; middle: ≥ 20 nM and < 80 nM; top: ≥ 80 nM

Solved cases (5 shown):
residueSequence	discreteLabel
AGAAAACAUGAGGAUCACCCAUGUGACAAUAUGGGAGGAUAUACGAACACGAAAGUCGAAGUAGAAGGCCUAAAGA [Garnet 53]	middle
CAAACAACAGCACAGGAUAUCCAUAUAAUAACAUGAGGAUCACCCAUGUAAGCGGAAAAUAACGCGGAGAAGGGUGAACACACAA [Default title]	top
AACAAUCUAUCUGAGGAUAUCAUGUAAAAGACAUGAGGAUCACCCAUGUAGCAGGAAACUGCAUAUGAGAAGGCAGAUAGAUUGA [SS2: 1120]	bottom
AACAAUCUAUCUGAGGAUAUAUGUCAAAAGACAUGAGGAUCACCCAUGUAAAAACAUGAAAAGACAUAGAAGGCAGAUAGAUUGA [SS2: 1133]	middle
GAAAAACAUGAGGAUCACCCAUGUGAUAACAUGGGAGGAUAUACAUGGACGAUAGUCAAAGUAGAAGGCCUAAAAG [Garnet 62]	top

Which class holds GAAAAACAUGAGGAUCACCCAUGUAGAAAUAUGGGAGGAUAUACAAACUCGAAAGUCAAAGUAGAAGGCCUAAAAG [Garnet 29] ?
top

Bin? AAAAUACAUGAGGAUCACCCAUGUCCGACAAAUCAAGGAUAUGAUAGCCUAACCAGGCUGUUAGAAGGUGAAAGAA [Laarera]
top
